Reference for the values: ChEMBL document CHEMBL1133323

Task for the reader: assign each of the following molecules its reported EC50.
Test system: U-87 MG
Assay: In vitro cytotoxicity against human glioblastoma (U-87-MG) cell line
Format: functional, U-87MG ATCC
Details: read-out: ED50 (the source's name)
Answers are plain numbers, in µg/mL.

// below: answered molecules
Recall the reported EC50 of `COc1cccc(/C=C/C(=O)c2ccccc2N)c1` on U-87 MG and write it down. 5.1

Fill in: EC50 on U-87 MG, entry COc1cccc(C2OC2C(=O)c2cc3c(cc2N)OCO3)c1 (centres undefined) 5

List reported EC50 for each of these molecules:
1. Nc1cc2c(cc1C(=O)C1OC1c1ccccc1F)OCO2 (centres undefined)
2. Nc1cc2c(cc1C(=O)/C=C/c1ccccc1F)OCO2
3. COc1cccc(/C=C/C(=O)c2cc3c(cc2N)OCO3)c1

1: 9; 2: 7; 3: 8

====

Tested on: HOS
Assay: In vitro cytotoxicity against human osteosarcoma (Hos) cell line
Assay type: functional
Conditions: read-out: ED50 (the source's name)
Note to self: EC50 under 4 µg/mL means t, ties and anything higher get f.

Confirm or reject: EC50 of COc1cccc(C2OC2C(=O)c2cc3c(cc2N)OCO3)c1 (centres undefined) lies strictly below 4 µg/mL f

Could you please tell me whether EC50 recorded for `COc1cccc(/C=C/C(=O)c2ccccc2N)c1` is less than 4 µg/mL? t

Item `COc1cccc(/C=C/C(=O)c2cc3c(cc2N)OCO3)c1` : EC50 beneath 4 µg/mL, strictly? t

# TODO verify EC50 < 4 µg/mL strictly for this compound: `Nc1cc2c(cc1C(=O)/C=C/c1ccc(F)cc1)OCO2` f

EC50 under 4 µg/mL? Item: `COc1cccc(/C=C/C(=O)c2ccc3c(c2)OCO3)c1` f

Now consider a different compound.
Answer whether the compound Cc1ccccc1C1OC1C(=O)c1ccccc1N (centres undefined) has EC50 strictly less than 4 µg/mL f

====

Test system: KB
Assay: In vitro cytotoxicity against human epidermoid carcinoma of the nasopharynx (KB) cell line
Assay type: functional
Settings: read-out: ED50 (the source's name)
Measured metric: EC50 (µg/mL)
Numbers only, in µg/mL.

Use the examples below as a reference point.
Write EC50 of `Nc1cc2c(cc1C(=O)/C=C/c1ccccc1F)OCO2` ; system used: KB 1.5

With KB as the test system, provide measured EC50 for this molecule: `Nc1cc2c(cc1C(=O)/C=C/c1ccc(F)cc1)OCO2` 3.1

Report EC50 on KB for this entry: COc1cccc(C2OC2C(=O)c2cc3c(cc2N)OCO3)c1 (centres undefined) 2

Please tell me the measured EC50 for `COc1cccc(/C=C/C(=O)c2ccc3c(c2)OCO3)c1` ; system: KB. 18.7

Using KB as the test system, report measured EC50 of Nc1cc2c(cc1C(=O)C1OC1c1ccccc1F)OCO2 (centres undefined) . 15.4

Please report the measured EC50 for `COc1cccc(/C=C/C(=O)c2ccccc2N)c1` tested on KB. 0.65

Enter measured EC50, system KB, for the molecule shown: Cc1ccccc1C1OC1C(=O)c1ccccc1N (centres undefined) 15.5

Recall the reported EC50 of `Cc1ccccc1/C=C/C(=O)c1ccccc1N` when tested on KB. 1.35

Others:
# assay system KB: give EC50 of `COc1cccc(/C=C/C(=O)c2cc3c(cc2N)OCO3)c1` 0.52
